- Tested on: Plasmodium falciparum W-2 (chloroquine-resistant, Indochina clone)
- method.description: Antiplasmodial [3H] hypoxanthine incorporation assay, W2 clone
- Type: cell-based
- particulars: P. falciparum W2, mean of 2–3 determinations, results from WRAIR, read-out: IC50 W2
Label key: satisfied means IC50 under 0.4 µg/mL; not satisfied means IC50 of 0.4 µg/mL or more.

Examples with answers:
| compound | discrete.label |
| --- | --- |
| C/C(=C\CO)C(=O)C[C@H]1C(C)(C)C(=O)C=C[C@]1(C)O | satisfied |
| C/C(=C\CO)[C@H]1C[C@H]2C(C)(C)C(=O)C=C[C@]2(C)OO1 [Compound 1, okundoperoxide] | satisfied |
| CCCCCCCCCC(=O)OC/C=C(\C)C(=O)C[C@H]1C(C)(C)C(=O)C=C[C@]1(C)O | not satisfied |
| C=CC(C)(O)C1C[C@H]2C(C)(C)C(=O)C=C[C@]2(C)OO1 (some centres unmarked) | not satisfied |

--- query ---
(Q) Say whether its IC50 is strictly beneath 0.4 µg/mL. Entry: C=C[C@H]1C[N@@]2CC[C@H]1C[C@H]2[C@H](O)c1ccnc2ccc(OC)cc12 [Quinine, reference compound]
(A) satisfied

* * *

- method.description: Chromatographic eLogD technique
- Format: physicochemical
- particulars: SUPELCOSIL LC-ABZ column with octanol saturated mobile phase, pH 7.4
# key: entry, value: chromatographic logD
Hey, just send me the number, nothing else.

| compound | reading |
| --- | --- |
| C/C(=C\CO)C(=O)C[C@H]1C(C)(C)C(=O)C=C[C@]1(C)O [Compound 2, sclerienone C] | 0.35 |

(Q) Consider the compound shown here: C/C(=C\CO)[C@H]1C[C@H]2C(C)(C)C(=O)C=C[C@]2(C)OO1 [Compound 1, okundoperoxide] What is its recorded chromatographic logD?
(A) 1.71

* * *

- method.description: Kinetic solubility, turbidimetric method (nephelometry)
- Type: physicochemical
- particulars: simulated gastric fluid, kinetic from dmso stock; pH 2 (0.01 M HCl), 1% DMSO; read-out: Solubility pH 2
experimental.readout: solubility

| compound | solubility |
| --- | --- |
| C/C(=C\CO)[C@H]1C[C@H]2C(C)(C)C(=O)C=C[C@]2(C)OO1 [Compound 1, okundoperoxide] | > 100 µg/mL |

Now turn to the next compound.
(Q) Consider the compound shown here: C/C(=C\CO)C(=O)C[C@H]1C(C)(C)C(=O)C=C[C@]1(C)O What is its recorded solubility?
(A) 50 to 100 µg/mL

This collection of values is drawn from paper PMC5481270.
